Data provenance: paper PMC7822874

tested on: P. berghei-ANKA-GFP-LucCON liver stage parasites in HepG2-A16-CD81EGFP cells; assay: P. berghei liver stage Pb-Luc assay, Method 1 (UCSD, 1536-well); assay type: cell-based, Plasmodium berghei; details: Plasmodium berghei, Method 1; log10 of molar AC50 from Hill fit; read-out: Log AC50 (converted)
Could you mark each record true (1) if its AC50 falls strictly under 2 µM, and false (0) if it equals or exceeds it?

>>> answer_label("COc1ccc(-n2nc(C)c([C@@H]3C=C[C@@H](NCc4ccc(N(C)C)cc4)C3)c2C)cc1")
"true (1)"
>>> answer_label("COc1ccccc1Nc1cnc2ccc(-c3ccc(OC)c(OC)c3)nn12")
"true (1)"
>>> answer_label("COc1ccc(-n2nc(C)c([C@@H]3C=C[C@@H](NCc4ccc(F)cc4)C3)c2C)cc1")
"true (1)"
>>> answer_label("COc1ccc(-c2ccc3ncc(Nc4ccncc4)n3n2)cc1OC")
"false (0)"
>>> answer_label("COc1ccc(Nc2cnc3ccc(-c4ccc(OC)c(OC)c4)nn23)cc1")
"true (1)"
>>> answer_label("c1ccc(CCNc2ccnc3cc4ccccc4cc23)cc1")
"true (1)"

###

test system: Plasmodium falciparum Dd2-attB (parental line), asexual blood stages; construct: Dd2-attB, the isogenic parental line; assay: microbe, parasite or virus in culture; design: replicate k of 3 (each line is one of three independent assays; the three lines of one compound and parasite line follow each other); details: Plasmodium falciparum, DD2, 72 h; n = 1; read-out: Individual replicates / Log AC50 (converted)
Labelling field: enter 1 if recorded AC50 is less than 7 µM. Enter 0 if it equals or exceeds that cut-off.

>>> answer_label("NC(=O)c1csc(-n2cc(Cc3ccc([S+](N)(=O)[O-])cc3)c(-c3cccc(-c4ccccc4)c3)n2)n1")
0
>>> answer_label("O=C(NCCN1CCOCC1)c1cccc(-c2cc(O)c3ncccc3c2)c1")
1
>>> answer_label("COc1ccc(CNC(=O)c2nc([S+](=O)([O-])Cc3ccccc3)ncc2Cl)cc1")
0
>>> answer_label("Cc1ccc(C)c(NC2=C(c3ccc(C(F)(F)F)cc3)C(=O)c3ccccc32)c1")
1
>>> answer_label("O=C(O)c1ccc(O)c2ncc(N3CCCCC3CCc3ccccn3)cc12 (centres unmarked)")
0
>>> answer_label("Oc1ccc(CNc2ccc(C(F)(F)F)cc2Cl)c2cccnc12")
1
>>> answer_label("CN(C)CCCCNC(=O)c1cccc(-c2cc(O)c3ncccc3c2)c1")
0

###

system: HepG2-A16-CD81EGFP cells; conditions: nominal 1 uM (10 mM stock); […] for 15 mM, 1.2 uM for 12 mM, 2 uM for 20 mM stock; average of 2 wells; repeat 2
EXPERIMENTAL ENDPOINT: HepG2 viability signal, 1 uM, repeat 2 (%)

>>> recorded_number("CCN1CCN(C(=O)c2ccc3c(c2)N(Cc2ccc(Cl)cc2)C(=O)c2ccccc2[S+]3[O-])CC1 (stereo not shown)")
105.55
>>> recorded_number("COc1ccccc1NC(=O)Cn1cccc1-c1nc(-c2ccc(F)cc2)no1")
104.40
>>> recorded_number("Fc1ccc(N2CCCN(C[C@H]3[C@@H]4CNC[C@@H]43)CC2)cc1")
103.90
>>> recorded_number("COc1ccc(-c2ccc3ncc(Nc4ccc(C(N)=O)cc4)n3n2)cc1OC")
102.54
